Origin of the recorded values: the supplement of paper PMC11246515

test: total protein half-life in vivo (active degradation + dilution); higher = more stable protein; conditions: E. coli NCM3722 delta-smpB; growth: N-lim chemostat; doubling time 6 h
measurement_kind: total protein half-life in vivo
A bare number is not enough; add the unit after it.

Some solved cases for reference:
Find the recorded total protein half-life in vivo belonging to MKKNRAFLKWAGGKYPLLDDIKRHLPKGECLVEPFVGAGSVFLNTDFSRYILADINSDLISLYNIVKMRTDEYVQAARELFVPETNCAEVYYQFREEFNKSQDPFRRAVLFLYLNRYGYNGLCRYNLRGEFNVPFGRYKKPYFPEAELYHFAEKAQNAFFYCESYADSMARADDASVVYCDPPYAPLSATANFTAYHTNSFTLEQQAHLAEIAEGLVERHIPVLISNHDTMLTREWYQRAKLHVVKVRRSISSNGGTRKKVDELLALYKPGVVSPAKK [P0AEE8] and report it.
4.51 h

Find the recorded total protein half-life in vivo belonging to MATNAKPVYKRILLKLSGEALQGTEGFGIDASILDRMAQEIKELVELGIQVGVVIGGGNLFRGAGLAKAGMNRVVGDHMGMLATVMNGLAMRDALHRAYVNARLMSAIPLNGVCDSYSWAEAISLLRNNRVVILSAGTGNPFFTTDSAACLRGIEIEADVVLKATKVDGVFTADPAKDPTATMYEQLTYSEVLEKELKVMDLAAFTLARDHKLPIRVFNMNKPGALRRVVMGEKEGTLITE [P0A7E9] and report it.
4.49 h

Find the recorded total protein half-life in vivo belonging to MIEFVYPHTQLVAGVDEVGRGPLVGAVVTAAVILDPARPIAGLNDSKKLSEKRRLALYEEIKEKALSWSLGRAEPHEIDELNILHATMLAMQRAVAGLHIAPEYVLIDGNRCPKLPMPAMAVVKGDSRVPEISAASILAKVTRDAEMAALDIVFPQYGFAQHKGYPTAFHLEKLAEHGATEHHRRSFGPVKRALGLAS and report it.
1.39 h

Could you report total protein half-life in vivo for every entry in the following list?
1. MGGISIWQLLIIAVIVVLLFGTKKLGSIGSDLGASIKGFKKAMSDDEPKQDKTSQDADFTAKTIADKQADTNQEQAKTEDAKRHDKEQV
2. MRTLQGWLLPVFMLPMAVYAQEATVKEVHDAPAVRGSIIANMLQEHDNPFTLYPYDTNYLIYTQTSDLNKEAIASYDWAENARKDEVKFQLSLAFPLWRGILGPNSVLGASYTQKSWWQLSNSEESSPFRETNYEPQLFLGFATDYRFAGWTLRDVEMGYNHDSNGRSDPTSRSWNRLYTRLMAENGNWLVEVKPWYVVGNTDDNPDITKYMGYYQLKIGYHLGDAVLSAKGQYNWNTGYGGAELGLSYPITKHVRLYTQVYSGYGESLIDYNFNQTRVGVGVMLNDLF [P0A921]
3. MKKMLLATALALLITGCAQQTFTVQNKQTAVAPKETITHHFFVSGIGQKKTVDAAKICGGAENVVKTETQQTFVNGLLGFITLGIYTPLEARVYCSK

4.55 h
5.96 h
6.05 h
